Biological target: T1, full-length beta-Catenin (Uniprot ID P35222) (Homo sapiens (Human), UniProt P35222 1-781)
T1 construct: the AlphaScreen used a Histidine (Nickel Chelate) detection kit, so a His tag is likely but not described; also called B-Catenin; bCat
T1 sequence: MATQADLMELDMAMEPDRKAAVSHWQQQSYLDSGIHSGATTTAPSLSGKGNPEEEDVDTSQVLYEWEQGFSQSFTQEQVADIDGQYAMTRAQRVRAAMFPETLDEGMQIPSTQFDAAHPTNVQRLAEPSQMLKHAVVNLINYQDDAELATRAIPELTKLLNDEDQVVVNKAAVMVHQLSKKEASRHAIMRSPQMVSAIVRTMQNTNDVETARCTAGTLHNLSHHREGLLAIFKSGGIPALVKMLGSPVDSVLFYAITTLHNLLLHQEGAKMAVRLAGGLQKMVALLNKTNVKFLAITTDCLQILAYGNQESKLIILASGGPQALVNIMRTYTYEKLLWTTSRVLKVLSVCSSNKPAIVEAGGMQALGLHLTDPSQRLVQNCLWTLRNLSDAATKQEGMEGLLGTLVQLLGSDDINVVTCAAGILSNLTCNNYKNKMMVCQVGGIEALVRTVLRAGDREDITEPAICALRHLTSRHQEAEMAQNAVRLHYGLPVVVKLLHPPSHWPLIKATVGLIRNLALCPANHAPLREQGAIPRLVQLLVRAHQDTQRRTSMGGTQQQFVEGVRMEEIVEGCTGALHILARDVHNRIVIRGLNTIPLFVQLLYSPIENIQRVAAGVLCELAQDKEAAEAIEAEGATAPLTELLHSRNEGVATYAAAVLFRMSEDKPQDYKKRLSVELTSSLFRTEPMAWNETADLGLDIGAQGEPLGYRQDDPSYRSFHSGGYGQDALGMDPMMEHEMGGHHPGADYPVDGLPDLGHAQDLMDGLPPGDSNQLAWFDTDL
Assay: AlphaScreen competition vs biotin-TCF4(10-53) on full-length beta-catenin
Starred links: 1 amine or outer side, 2 acyl side, 3 side chain; linkers in the order of their positions; H or OH if unused. Positions of bridges follow the written chain, without caps; N, C: chain ends. Non-standard residues stand in square brackets, D forms with d. Primed or numbered codes have the meaning given here. B5(4) = 2,2-bis(4-pentenyl)glycine = 2-amino-2-(pent-4-en-1-yl)hept-6-enoic acid (stitching residue), C=CCCCC(CCCC=C)(N[*:1])C(=O)[*:2]; B5 = 2-amino-2-(pent-4-en-1-yl)hept-6-enoic acid, C=CCCCC(CCCC=C)(N[*:1])C(=O)[*:2]; Phe(4-NH2) = Nc1ccc(C[C@H](N)C(=O)O)cc1; Phe(2-F) = N[C@@H](Cc1ccccc1F)C(=O)O; Bta = N[C@@H](Cc1csc2ccccc12)C(=O)O; αAllylPro = C=CC[C@@]1(C(=O)O)CCCN1; 2Thi = N[C@@H](Cc1cccs1)C(=O)O; S8 = C=CCCCCCC[C@](C)(N)C(=O)O; hSer = N[C@@H](CCO)C(=O)O
quantity: log10 of EC50 (log10 of the value in nM)
Scale: log10; quantity: EC50; unit before log: nM

Please review the following examples before continuing.
Ac-[αAllylPro]DA[B5]DDAAFQ[S8]FWA-NH2 (staple 1-4, 4-11, Ac-PL3-Asp-Ala-B5-Asp-Asp-Ala-Ala-Phe-Gln-S8-Phe-Trp-Ala-NH2; stapled peptide composition) [I-316]; 2.13
XDAXDDAAFVXFWA (not fully specified; N-terminal acetyl (Ac); C-terminal amide (NH2); PL3 at 1, B5 at 4, S8 at 11; stapled PL3-B5 and B5-S8, Ac-PL3-Asp-Ala-B5-Asp-Asp-Ala-Ala-Phe-Val-S8-Phe-Trp-Ala-NH2; stapled peptide composition) [I-292]; 2.27
Ac-[αAllylPro]DA[B5(4)]DDAA[2Thi]V[S8]FWQ-NH2 (staple 1-4, 4-11, Ac-PL3-Asp-Ala-B5-Asp-Asp-Ala-Ala-2Thi-Val-S8-Phe-Trp-Gln-NH2; stapled peptide composition) [I-325]; 1.72
XHAXDEAAFVXFWQ (not fully specified; N-terminal acetyl (Ac); C-terminal amide (NH2); PL3 at 1, B5 at 4, S8 at 11; stapled PL3-B5 and B5-S8, Ac-PL3-His-Ala-B5-Asp-Glu-Ala-Ala-Phe-Val-S8-Phe-Trp-Gln-NH2; stapled peptide composition) [I-315]; 4.00
XDAXDDAAFVXFWQ (not fully specified; N-terminal acetyl (Ac); C-terminal amide (NH2); PL3 at 1, B5 at 4, S8 at 11, 2FF at 12; stapled PL3-B5 and B5-S8, Ac-PL3-Asp-Ala-B5-Asp-Asp-Ala-Ala-Phe-Val-S8-2FF-Trp-Gln-NH2; stapled peptide composition) [I-318]; 2.08

-- ask Would you mind telling me what log10 of EC50 value was observed for Ac-[αAllylPro]DA[B5]DDAA[Phe(2-F)]V[S8]FWQ-NH2 (staple 1-4, 4-11, Ac-PL3-Asp-Ala-B5-Asp-Asp-Ala-Ala-2FF-Val-S8-Phe-Trp-Gln-NH2; stapled peptide composition) [I-317] ?
-- reply 2.65

-- ask Would you mind telling me what log10 of EC50 value was observed for XDAXDDAAFVXFWQ (not fully specified; N-terminal acetyl (Ac); C-terminal amide (NH2); PL3 at 1, B5 at 4, S8 at 11, 3ClF (printed 3C1F) at 12; stapled PL3-B5 and B5-S8, Ac-PL3-Asp-Ala-B5-Asp-Asp-Ala-Ala-Phe-Val-S8-3C1F-Trp-Gln-NH2; stapled peptide composition) [I-310] ?
-- reply 3.51

-- ask Would you mind telling me what log10 of EC50 value was observed for Ac-[αAllylPro]DA[B5(4)]D[Phe(4-NH2)]AAFV[S8]FWQ-NH2 (staple 1-4, 4-11, Ac-PL3-Asp-Ala-B5-Asp-4AmPhe-Ala-Ala-Phe-Val-S8-Phe-Trp-Gln-NH2; stapled peptide composition) [I-324] ?
-- reply 3.24

-- ask Would you mind telling me what log10 of EC50 value was observed for Ac-[αAllylPro]D[hSer][B5(4)]DDAAFQ[S8]F[Bta]A-NH2 (staple 1-4, 4-11, Ac-PL3-Asp-Hse-B5-Asp-Asp-Ala-Ala-Phe-Gln-S8-Phe-BztA-Ala-NH2; stapled peptide composition) [I-299] ?
-- reply 2.28

-- ask Would you mind telling me what log10 of EC50 value was observed for XDAXDDAAFVXFWQ (not fully specified; N-terminal acetyl (Ac); C-terminal amide (NH2); PL3 at 1, B5 at 4, S8 at 11, 2FF at 12; stapled PL3-B5 and B5-S8, Ac-PL3-Asp-Ala-B5-Asp-Asp-Ala-Ala-Phe-Val-S8-2FF-Trp-Gln-NH2; stapled peptide composition) [I-319] ?
-- reply 1.73

-- ask Would you mind telling me what log10 of EC50 value was observed for XDAXDDAAFVXFWQ (not fully specified; N-terminal acetyl (Ac); C-terminal amide (NH2); PL3 at 1, B5 at 4, S8 at 11, 4ClF (printed 4C1F) at 12; stapled PL3-B5 and B5-S8, Ac-PL3-Asp-Ala-B5-Asp-Asp-Ala-Ala-Phe-Val-S8-4C1F-Trp-Gln-NH2; stapled peptide composition) [I-313] ?
-- reply 3.56
